System: SF-268 CNS
Test: NCI tumour cell line growth inhibition, 48 h
value-type: TGI (µM)

> print(dat)
                                   compound      target  sign  value.observed
1  CC(C)C(Sc1nc(-c2ccccc2)c(-c2ccccc2)[nH]1)c1n[nH]c(=S)n1-c1ccccc1 (stereo unspecified)  SF-268 CNS     >             100
2  O=S(=O)(O)c1ccc2c(N=Nc3ccccc3)c(O)ccc2c1  SF-268 CNS     >             100
3              Nc1cc(Cl)ccc1SSc1ccc(Cl)cc1N  SF-268 CNS     =            83.5
4    CN1CCN(CCCN2c3ccccc3Sc3ccc(Cl)cc32)CC1  SF-268 CNS     =              12
5  Cn1cc(C2=C(c3cn(CCCCCO)c4ccccc34)C(=O)NC2=O)c2ccccc21  SF-268 CNS     =            19.1
6  CC1=N[C@@](C)(C2CC3C=CC2C3=O)COC1=O (stereo partly specified)  SF-268 CNS     >             100

###

Test system: EKVX NSCLC
Assay: NCI tumour cell line growth inhibition, 48 h
value-type: TGI

> print(dat)
                                    molecule      target  value.observed
 1  CN(C)CC1CCC/C(=C\c2ccccc2)C1=O (stereo unspecified)  EKVX NSCLC         33.7 µM
 2  Cc1cc(C)nc(NS(=O)(=O)c2ccc(NC(=O)NC(F)(F)F)cc2)n1  EKVX NSCLC        > 100 µM
 3  N#Cc1c(-c2ccc(Cl)cc2)c2c([nH]c1=O)-c1cc([N+](=O)[O-])ccc1CCC2  EKVX NSCLC         51.2 µM
 4  COC(=O)c1oc2c(C(=O)/C=C/c3ccc(OC)cc3)c(OCCN3CCOCC3)ccc2c1C  EKVX NSCLC         7.49 µM
 5  Cc1ccc(C(=O)Nc2ncn(C3CC(O)C(CO)O3)c(=O)n2)cc1 (stereo unspecified)  EKVX NSCLC        > 100 µM
 6  COc1ccccc1NC(=O)CC(=O)N1N=C(c2ccccc2)C(N=Nc2ccc(Cl)cc2)C1=O (stereo unspecified)  EKVX NSCLC        > 100 µM
 7  Cc1cc(S(=O)(=O)NC(=NCCc2ccccc2)NN)c(S)cc1Cl  EKVX NSCLC        > 100 µM
 8  COc1ccc(Cn2cc3c(c2-c2cc(OC)c(OC)c(OC)c2)CCc2c(CO)noc2-3)cc1  EKVX NSCLC       > 76.9 µM
 9         Cn1c2cn[nH]c(=O)c2c2ccc3ccccc3c21  EKVX NSCLC         75.3 µM
10  COC(=O)C(c1ccc(OC)cc1)N1C(=O)[C@@H](NC(=O)c2ccccc2)[C@H]1[C@@H](C)O (stereo partly specified)  EKVX NSCLC        > 100 µM
11  CC(=O)Nc1cc2nc3n(c2cc1C)CCC3OC(C)=O (stereo unspecified)  EKVX NSCLC        > 100 µM
12  Cc1cn(C2CCN(CC3COC(C)(C)O3)O2)c(=O)[nH]c1=O (stereo unspecified)  EKVX NSCLC        > 100 µM
13        O=c1[nH]c(=O)n(CCOCP(=O)(O)O)nc1Br  EKVX NSCLC        > 100 µM
14  CCC1(c2ccc(N)cc2)CCC(=O)NC1=O (stereo unspecified)  EKVX NSCLC       > 5000 µM
15  CCCCC1(O)CC2CC1C(C)C2(C)C (stereo unspecified)  EKVX NSCLC        > 100 µM
16  COc1cc(C2OC[C@@H]3C(=O)OC[C@H]23)cc(O)c1OC (stereo partly specified)  EKVX NSCLC        > 100 µM
17  CN(C)CCOc1ccccc1NC1=C(Cl)C(=O)C(Nc2ccccc2OCCN(C)C)=C(Cl)C1=O  EKVX NSCLC         19.1 µM
18  Cc1cn(Cc2cn(CC3OC(n4cc(C)c(=O)[nH]c4=O)CC3O)nn2)c(=O)[nH]c1=O (stereo unspecified)  EKVX NSCLC        > 100 µM
19  Cc1ccc(OCCOCCOCCOCCOCCOc2ccc(C)n(O)c2=S)c(=S)n1O  EKVX NSCLC        > 100 µM
20  Cc1ccsc1-c1ccc2c(c1)COC2(CCCN(C)C)c1ccc(F)cc1 (stereo unspecified)  EKVX NSCLC         18.5 µM
21  CCNCCNc1cc(-c2ccc(C(F)(F)F)cc2)c(C#N)c2nc3cc(Cl)c(Cl)cc3n12  EKVX NSCLC         3.13 µM
